Please provide measured Max fall in blood pressure for the entries that follow.
Tested on: Rattus norvegicus
Assay: The compound was tested for the maximum fall in systolic blood pressure 1-6 hr of 0.3 mg/kg oral dose administration in rats
Assay type: functional, Artery
Give bare numbers, in %.

# example entries with known answers
# molecule, targetDesc, recordedNumber
measured = [
    ("CC1(C)C=C(N2CCCC2=O)c2cc(C#N)ccc2O1", "Rattus norvegicus", 47),
    ("CNC(=O)NC1c2cc(C#N)ccc2OC(C)(C)[C@H]1O (some centres undefined)", "Rattus norvegicus", 31),
    ("CC1(C)Oc2ccc(C#N)cc2C(NC(=O)c2ccccc2)C1O (centres undefined)", "Rattus norvegicus", 16),
]

Next molecule, Max fall in blood pressure to be filled in.
Query: Give its Max fall in blood pressure value. Item: CC1(C)Oc2ccc(C#N)cc2C(N2CCCC2=O)C1O (centres undefined)
Result: 39

---

Tested on: Rattus norvegicus
Test: The compound was tested for the maximum fall in systolic blood pressure 1-6 hr of 1.0 mg/kg oral dose administration in rats
Assay type: functional, Artery
I'd appreciate it if you marked entries True when Max fall in blood pressure is lower than 30% and False when it is not.

Example entries and their recorded answers appear below.
# molecule, group
rows = [
    ("CN(C)C(=O)CC1c2cc(C#N)ccc2OC(C)(C)C1O (stereo not drawn)", "True"),
    ("CC(=O)CC1c2cc(C#N)ccc2OC(C)(C)C1O (stereo not drawn)", "True"),
    ("CC1(C)C=C(N2CCCC2=O)c2cc(C#N)ccc2N1", "True"),
    ("CC1(C)C=C(N2CCCC2=O)c2cc(C#N)ccc2C1", "True"),
]

Query: Please indicate whether the reported Max fall in blood pressure of CNC(=O)NC1c2cc(C#N)ccc2OC(C)(C)[C@H]1O (stereo partly drawn) is strictly below 30%.
Result: False

Query: Please indicate whether the reported Max fall in blood pressure of CC(=O)NC1c2cc(C#N)ccc2OC(C)(C)C1O (stereo not drawn) is strictly below 30%.
Result: False

Query: Please indicate whether the reported Max fall in blood pressure of CC(=O)NC1c2cc(C#N)ccc2CC(C)(C)C1O (stereo not drawn) is strictly below 30%.
Result: True

Query: Please indicate whether the reported Max fall in blood pressure of CC1(C)Oc2ccc(C#N)cc2C(N2CCCC2=O)C1O (stereo not drawn) is strictly below 30%.
Result: False

---

Test system: Rattus norvegicus
Assay: The compound was tested for the maximum fall in systolic blood pressure 1-6 hr of 3.0 mg/kg oral dose administration in rats
Type: functional, Artery
I'd appreciate it if you marked entries criterion met when Max fall in blood pressure is lower than 30% and criterion not met when it is not.

Example entries and their recorded answers appear below.
# molecule, targetDesc, group
data = [
    ("CC1(C)Cc2ccc(C#N)cc2C(N2CCCC2=O)C1O (stereo not given)", "Rattus norvegicus", "criterion met"),
    ("CC1(C)Nc2ccc(C#N)cc2C(N2CCCC2=O)C1O (stereo not given)", "Rattus norvegicus", "criterion met"),
    ("CN(C)C(=O)CC1c2cc(C#N)ccc2OC(C)(C)C1O (stereo not given)", "Rattus norvegicus", "criterion not met"),
    ("CC1(C)C=C(N2CCCC2=O)c2cc(C#N)ccc2C1", "Rattus norvegicus", "criterion not met"),
    ("CNC(=O)NC1c2cc(C#N)ccc2CC(C)(C)C1O (stereo not given)", "Rattus norvegicus", "criterion met"),
]

Query: Please indicate whether the reported Max fall in blood pressure of CC(=O)NC1c2cc(C#N)ccc2CC(C)(C)C1O (stereo not given) is strictly below 30%.
Result: criterion not met

Query: Please indicate whether the reported Max fall in blood pressure of CC(=O)NC1c2cc(C#N)ccc2OC(C)(C)C1O (stereo not given) is strictly below 30%.
Result: criterion not met

Query: Please indicate whether the reported Max fall in blood pressure of CNC(=O)CC1c2cc(C#N)ccc2OC(C)(C)C1O (stereo not given) is strictly below 30%.
Result: criterion met

Query: Please indicate whether the reported Max fall in blood pressure of CC1(C)Cc2ccc(C#N)cc2C(NC(=O)c2ccccc2)C1O (stereo not given) is strictly below 30%.
Result: criterion met

Query: Please indicate whether the reported Max fall in blood pressure of `CC1(C)C=C(N2CCCC2=O)c2cc(C#N)ccc2N1` is strictly below 30%.
Result: criterion met
